Where do these numbers come from? They come from paper PMC7315603.

# Method Description: Intrinsic microsomal clearance, human liver microsomes
# Format: in vitro ADME
# Conditions Used: human liver microsomes
Where a SMILES comes first, the peptide text is derived from it. [ ]: non-standard residue; d: D form. aIle = CC[C@@H](C)[C@H](N)C(=O)O; dPhLac = O=C(O)[C@H](O)Cc1ccccc1; Sar = CNCC(=O)O
Endpoint Label: intrinsic microsomal clearance (Clint), human

CC[C@@H](C)[C@@H]1NC(=O)[C@@H](Cc2ccccc2)OC(=O)CN(C)C(=O)[C@H]([C@H](C)CC)NC(=O)[C@@H](Cc2ccccc2)OC(=O)CN(C)C1=O [Compound 9] (cyclo([Sar][dPhLac][aIle][Sar][dPhLac][aIle])) : 46.53 mL/(min g) tissue
CC(C)[C@@H]1NC(=O)[C@@H](Cc2ccccc2)NC(=O)CN(C)C(=O)[C@H](C(C)C)NC(=O)[C@@H](Cc2ccccc2)NC(=O)CN(C)C1=O [Compound 15] (cyclo([Sar][dF]V[Sar][dF]V)) : 3.60 mL/(min g) tissue
CC[C@H](C)[C@@H]1NC(=O)[C@@H](Cc2ccccc2)OC(=O)CNC(=O)[C@H]([C@@H](C)CC)NC(=O)[C@@H](Cc2ccccc2)OC(=O)CNC1=O [Compound 13] (cyclo(G[dPhLac]IG[dPhLac]I)) : 32.80 mL/(min g) tissue

====

# Method Description: Kinetic aqueous solubility
# Format: physicochemical
Where a SMILES comes first, the peptide text is derived from it. [ ]: non-standard residue; d: D form. aIle = CC[C@@H](C)[C@H](N)C(=O)O; dPhLac = O=C(O)[C@H](O)Cc1ccccc1; Sar = CNCC(=O)O
Parameter solubility kinetic: see the listing below.
Endpoint Label: solubility kinetic

CC[C@@H](C)[C@@H]1NC(=O)[C@@H](CC(C)C)NC(=O)CN(C)C(=O)[C@H]([C@H](C)CC)NC(=O)[C@@H](CC(C)C)NC(=O)CN(C)C1=O [Compound 19] (cyclo([dL][aIle][Sar][dL][aIle][Sar])) : ≥ 184 µg/mL
CC(C)C[C@@H]1NC(=O)[C@@H](Cc2ccccc2)OC(=O)CN(C)C(=O)[C@H](CC(C)C)NC(=O)[C@@H](Cc2ccccc2)OC(=O)CN(C)C1=O [Compound 10] (cyclo(L[Sar][dPhLac]L[Sar][dPhLac])) : > 180 µg/mL
CC[C@@H](C)[C@@H]1NC(=O)[C@@H](Cc2ccccc2)OC(=O)CN(C)C(=O)[C@H]([C@H](C)CC)NC(=O)[C@@H](Cc2ccccc2)OC(=O)CN(C)C1=O [Compound 9] (cyclo([Sar][dPhLac][aIle][Sar][dPhLac][aIle])) : > 180 µg/mL
